Measured values drawn from PubChem BioAssay (NCI) for this set.

# System: LOX IMVI melanoma
# assay.method.text: NCI tumour cell line growth inhibition, 48 h
TGI overview
experimental.endpoint: TGI (µM)

1) CCC[n+]1cc2cc3c(cc2c2c1-c1cc4c(cc1C2)OCO4)OCO3 (tested in a mixture with another compound) | 14.3
2) COc1c(B(O)O)cccc1-c1nc2ccc3[nH]ncc3c2c2c1CCCC2 | 6.28
3) N#C/C(=C\c1ccc([N+](=O)[O-])o1)c1n[nH]c(Cc2ccccc2)n1 | 3.85

----------
# Test system: SNB-75 CNS
# assay.method.text: NCI tumour cell line growth inhibition, 48 h
experimental.endpoint: TGI (µM)

1) O=[N+]([O-])c1cccc(S(=O)(=O)N/N=C/c2cc(I)cc([N+](=O)[O-])c2O)c1 | 67.2
2) O=C1N/C(=N\N=C\c2ccccc2)C2(CCCCC2)O1 | 88.5
3) COc1ccc(/C=C2\COc3ccc(O)c(O)c3C2=O)cc1OC | 29.1
4) Cc1c(Cl)cccc1NC(=O)c1sc2nc3c(cc2c1N)C(=O)CCC3 | 20.9
5) COCCNCc1ccc(-c2cc3nccc(Oc4ccc(NC(=O)C5(C(=O)Nc6ccc(F)cc6)CC5)cc4F)c3s2)nc1 | 2.26

----------
# System: SK-OV-3 ovarian
# assay.method.text: NCI tumour cell line growth inhibition, 48 h
experimental.endpoint: GI50

1) C=CCC(N[C@H](CO)c1ccccc1)c1ccccn1 (some centres undefined) | > 100 µM
2) Cc1cc(Cl)nc(N(CCCNc2ccnc3cc(Cl)ccc23)Cc2cccs2)n1 | 3.27 µM
3) O=c1cc(-c2ccccc2)oc2cc(OCCCCCN3CCOCC3)cc(O)c12 | 16.4 µM
4) C[C@@H](CS[As](C)C)C(=O)N1CCC[C@H]1C(=O)O | 0.625 µM
5) Cc1cc2c3c([n+](C)c4ccc(F)cc4c3c1)-c1cc(F)ccc1N2C | 64.7 µM
6) CC1=CC(C)(C)Nc2ccc(Cc3ccc4c(c3)C(C)=CC(C)(C)N4)cc21 | 17.7 µM
7) CC(=O)O[C@@H]1C2=C(C)C3(CC3)[C@@](C)(O)C(=O)C2=C[C@@]1(C)CO | 1.55 µM
8) CNCC(=O)NC(CO)C(=O)NC(CO)C(=O)NC1C(C(N)=O)OC(n2ccc(N)nc2=O)C(O)C1O (centres undefined) | 7.66 µg/mL
9) O=C(N=Nc1c(Cl)c(O)c2ccccc2c1O)C(=O)Nc1cccc(C(F)(F)F)c1 | 12.9 µM
10) C=C1C(=O)O[C@H]2[C@H]1CC/C(COC(=O)CCCCCCCC(=O)OC/C1=C/CC[C@@]3(C)O[C@H]3[C@H]3OC(=O)C(=C)[C@@H]3CC1)=C\CC[C@@]1(C)O[C@@H]21 | 13.1 µM
11) Cn1cc(C2=C(c3cc[nH]c3)C(=O)NC2=O)c2ccccc21 | > 23.3 µM
12) Cc1nc2sc(C(=O)Nc3ccccc3)c(N)c2cc1C(O)c1ccccc1 (centres undefined) | 0.523 µM
13) c1csc(-c2ccc(CNc3c4ccccc4nc4ccccc34)cc2)c1 | 11 µM
14) Cc1nn(Cc2ccccc2)cc1C(=O)Nc1sc2c(c1C(N)=O)CCC(=O)C2 | 2.7 µM

----------
# System: HL-60(TB) leukemia
# assay.method.text: NCI tumour cell line growth inhibition, 48 h
experimental.endpoint: TGI

1. C=C1C(=O)O[C@H]2[C@H]1CC/C(COC(=O)CCCCCCCC(=O)OC/C1=C/CC[C@@]3(C)O[C@H]3[C@H]3OC(=O)C(=C)[C@@H]3CC1)=C\CC[C@@]1(C)O[C@@H]21 | 4.87 µM
2. CC1(C)N=C(c2ccccc2)SC12S[C@@H]1CCCC[C@H]1S2 | > 100 µM
3. COc1ccc(C2Oc3c(cccc3-c3c(-c4ccc(O)cc4)oc4cc(O)cc(O)c4c3=O)C(=O)C2O)cc1O (stereo not given) | > 100 µM
4. CCOC(=O)N/N=C(\CC)NO | > 100 µM
5. CCCCCCCCCCCCCCCCCCOCC(C[N+]1(C)CCC(O)CC1)OCC (stereo not given) | 8.42 µM
6. C=C1C2CC3CCC2C(OC(=O)c2ccccc2C(=O)O)C13 (stereo not given) | > 100 µM
7. COc1cccc(N2CCN(c3ncnc4cc[nH]c34)CC2)c1 | 74 µM
8. O=[N+]([O-])c1cccc(-c2cn3c(n2)Cc2ccccc2C3)c1 | > 100 µM
9. CSc1nnc(-c2cc3c([nH]c4ccccc43)c(-c3cccc(O)c3)n2)n1-c1ccc(C)cc1 | > 100 µM
10. CCOC(=O)c1csc(C(CSCc2ccc(OC)cc2)N2C(=O)c3ccccc3C2=O)n1 (stereo not given) | > 100 µM
11. O=C(COC(=O)c1cccc2c(=O)c3ccccc3[nH]c12)Nc1ccc(Cl)cc1 | > 100 µM
12. O=[N+]([O-])c1ccc(C2SCc3nc4ccccc4n32)cc1 (stereo not given) | > 100 µM
13. CN1C(=O)[C@H](c2c[nH]c3ccccc23)[C@H](c2c[nH]c3ccccc23)C1=O | > 46.9 µM
14. N#C/C(=C\c1ccc([N+](=O)[O-])o1)c1n[nH]c(Cc2ccccc2)n1 | 6.83 µM
15. CN(CCCN1C(=O)c2cccc3cc([N+](=O)[O-])cc(c23)C1=O)CCN(C)CCCN1C(=O)c2cccc3cc([N+](=O)[O-])cc(c23)C1=O | > 39.3 µM
16. NCCCC(N=Cc1nc(-c2ccccc2)oc1O)C(=O)O (stereo not given) | > 100 µM
17. CC[C@@H]([C@H](O)c1ccccc1Cl)[N+](=O)[O-] | > 100 µM
18. COc1cc2c3c(n(CCN4CCOCC4)c(=O)c2cc1OC)-c1ccccc1C3=O | > 100 µM
19. Nn1c(-c2cccc(Cl)c2)nc2ccccc2c1=O | > 100 µM
20. CC(C)(C)C(=O)c1c(C(F)(F)F)n([O-])c2cc(Cl)c(Cl)cc2[n+]1=O | 0.446 µM
